- System: α-glucosidase (yeast, type I) (Saccharomyces cerevisiae, UniProt P53341)
- Construct: purchased Sigma Chemicals, U.S.A
- Sequence (P53341 whole entry): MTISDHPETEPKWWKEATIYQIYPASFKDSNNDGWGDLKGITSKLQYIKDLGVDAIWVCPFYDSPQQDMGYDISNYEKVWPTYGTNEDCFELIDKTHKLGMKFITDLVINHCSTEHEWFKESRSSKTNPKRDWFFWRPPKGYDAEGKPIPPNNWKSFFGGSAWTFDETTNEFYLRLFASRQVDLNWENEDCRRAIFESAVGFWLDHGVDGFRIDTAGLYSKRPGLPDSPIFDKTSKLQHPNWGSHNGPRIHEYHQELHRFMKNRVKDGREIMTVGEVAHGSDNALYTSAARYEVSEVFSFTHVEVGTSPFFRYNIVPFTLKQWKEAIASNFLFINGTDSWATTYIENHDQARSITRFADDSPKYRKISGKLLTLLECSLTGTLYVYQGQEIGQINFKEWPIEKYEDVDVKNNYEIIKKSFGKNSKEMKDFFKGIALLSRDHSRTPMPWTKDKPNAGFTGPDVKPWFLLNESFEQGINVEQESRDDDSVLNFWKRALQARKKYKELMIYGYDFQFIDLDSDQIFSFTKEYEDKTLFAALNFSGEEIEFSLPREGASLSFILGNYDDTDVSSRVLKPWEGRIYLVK
- Assay Summary: α-glucosidase inhibitory activity, p-nitrophenyl-α-D-glucopyranoside as substrate
- Format: biochemical
- Test Conditions: Table 1; α-glucosidase (yeast); pH 6.8, 37° C., 15 minutes; read-out: IC50 (molar concentration required for 50% inhibition)
Examples of compounds with documented IC50 follow.
Entry rule: numbers only, all in µM.

INSERT INTO measurements (compound, system, quantitative_result) VALUES
  ('OCC1=C[C@H](NCCCc2ccccc2)[C@H](O)[C@@H](O)[C@@H]1O [drawing 18]', 'α-glucosidase (yeast, type I) (Saccharomyces cerevisiae, UniProt P53341)', 2.2),
  ('OCC1=C[C@H](NCc2ccc(O)cc2)[C@H](O)[C@@H](O)[C@@H]1O [drawing 23]', 'α-glucosidase (yeast, type I) (Saccharomyces cerevisiae, UniProt P53341)', 5),
  ('OCC1=C[C@H](NCC(O)c2ccccc2)[C@H](O)[C@@H](O)[C@@H]1O (some centres unmarked) [drawing 16]', 'α-glucosidase (yeast, type I) (Saccharomyces cerevisiae, UniProt P53341)', 1.1);

Prompt: Please give the measured IC50 for this compound: OCC1=C[C@H](NC(CO)CO)[C@H](O)[C@@H](O)[C@@H]1O [drawing 29]
Completion: 66

Prompt: Please give the measured IC50 for this compound: COc1ccc(CN[C@H]2C=C(CO)[C@@H](O)[C@H](O)[C@H]2O)cc1
Completion: 18

Prompt: Please give the measured IC50 for this compound: OCC1=C[C@H](NC[C@H](O)[C@@H](O)[C@H](O)[C@H](O)CO)[C@H](O)[C@@H](O)[C@@H]1O
Completion: 110

* * *

- System: α-glucosidase (yeast, type I) (Saccharomyces cerevisiae)
- Construct: purchased Sigma Chemicals, U.S.A
- Assay Summary: α-glucosidase inhibitory activity, p-nitrophenyl-α-D-glucopyranoside as substrate
- Type: biochemical
- Test Conditions: Table 1; α-glucosidase (yeast); pH 6.8, 37° C., 15 minutes; read-out: IC50 (molar concentration required for 50% inhibition)
Examples of compounds with documented IC50 follow.
Entry rule: numbers only, all in µM.

INSERT INTO results (compound, units_text, quantitative_result) VALUES
  ('OCC1=C[C@H](NCCCCCc2ccccc2)[C@H](O)[C@@H](O)[C@@H]1O', 'µM', 0.75);

Prompt: Please give the measured IC50 for this compound: OCC1=C[C@H](NCC=Cc2ccccc2)[C@H](O)[C@@H](O)[C@@H]1O
Completion: 20

Prompt: Please give the measured IC50 for this compound: COc1ccccc1C(O)CN[C@H]1C=C(CO)[C@@H](O)[C@H](O)[C@H]1O (some centres unmarked) [drawing 24]
Completion: 0.38

Prompt: Please give the measured IC50 for this compound: OCC1=C[C@H](NC(CO)[C@@H](O)[C@H](O)[C@@H](O)CO)[C@H](O)[C@@H](O)[C@@H]1O (some centres unmarked) [drawing 37]
Completion: 130

* * *

Examples of compounds with documented IC50 follow.
- System: α-glucosidase (yeast, type I) (Saccharomyces cerevisiae, UniProt P53341)
- Construct: purchased Sigma Chemicals, U.S.A
- Assay Summary: α-glucosidase inhibitory activity, p-nitrophenyl-α-D-glucopyranoside as substrate
- Format: biochemical
- Test Conditions: Table 1; α-glucosidase (yeast); pH 6.8, 37° C., 15 minutes; read-out: IC50 (molar concentration required for 50% inhibition)
Entry rule: numbers only, all in µM.

INSERT INTO measurements (compound, quantitative_result) VALUES
  ('Cc1ccc(CN[C@H]2C=C(CO)[C@@H](O)[C@H](O)[C@H]2O)cc1', 20),
  ('OCC1=C[C@H](NCCc2ccccc2)[C@H](O)[C@@H](O)[C@@H]1O [drawing 15]', 1.8),
  ('OCC1=C[C@H](NCCCOc2ccccc2)[C@H](O)[C@@H](O)[C@@H]1O', 1.1),
  ('OCC1=C[C@H](NC[C@@H](O)[C@H](O)[C@H](O)CO)[C@H](O)[C@@H](O)[C@@H]1O', 120),
  ('OCC1=C[C@H](NC[C@@H](O)[C@@H](O)[C@H](O)[C@H](O)CO)[C@H](O)[C@@H](O)[C@@H]1O', 100),
  ('OCC1=C[C@H](NC[C@H](O)[C@@H](O)[C@H](O)CO)[C@H](O)[C@@H](O)[C@@H]1O', 110),
  ('OCC1=C[C@H](NCc2ccccc2)[C@H](O)[C@@H](O)[C@@H]1O', 9.2),
  ('OCC1=C[C@H](NC[C@H](O)[C@@H](O)[C@@H](O)[C@H](O)CO)[C@H](O)[C@@H](O)[C@@H]1O', 160),
  ('OCC1=C[C@H](NCC(c2ccccc2)c2ccccc2)[C@H](O)[C@@H](O)[C@@H]1O', 0.038),
  ('CCCCN[C@H]1C=C(CO)[C@@H](O)[C@H](O)[C@H]1O [CH2 CH2 CH2 CH3, N-n-butylvalienamine]', 21);

Prompt: Please give the measured IC50 for this compound: CC(C)(C)c1cc(CN[C@H]2C=C(CO)[C@@H](O)[C@H](O)[C@H]2O)cc(C(C)(C)C)c1O
Completion: 12

Prompt: Please give the measured IC50 for this compound: OCC1=C[C@H](NCc2cccnc2)[C@H](O)[C@@H](O)[C@@H]1O
Completion: 56

Prompt: Please give the measured IC50 for this compound: O=C(O)c1ccc(CN[C@H]2C=C(CO)[C@@H](O)[C@H](O)[C@H]2O)cc1
Completion: 150

Prompt: Please give the measured IC50 for this compound: OCC1=C[C@H](NCCCCc2ccccc2)[C@H](O)[C@@H](O)[C@@H]1O [drawing 20]
Completion: 0.98

Prompt: Please give the measured IC50 for this compound: CC(C)=CCC/C(C)=C/CN[C@H]1C=C(CO)[C@@H](O)[C@H](O)[C@H]1O [drawing 27]
Completion: 1.7

Prompt: Please give the measured IC50 for this compound: OCC1=C[C@H](NCC2CCCCC2)[C@H](O)[C@@H](O)[C@@H]1O
Completion: 0.38

From: patent US4486602A
